The reported measurements were obtained from paper PMC2864739.

- Target desc: HIV-1 envelope glycoprotein gp120 (IIIB) (HIV-1 IIIB (HXB2 clone entry), UniProt P04578)
- Protocol text: SPR; gp120 (IIIB) coupled covalently to a CM5 chip; D7 or D7 mutants at 25 and 100 nM flowed over; Biacore X; 10 mM HEPES pH 7.5, 100 mM NaCl, 0.05% P20; 30 µl/min; association 3 min, dissociation 15 min; simultaneous fit of association and dissociation
- Condition description: both partners purified
Endpoint name: log10 of kon (log10 of the value in M⁻¹ s⁻¹)
Heads up: the numbers are on a log10 scale; they represent kon in M⁻¹ s⁻¹.

Name the reported log10 of kon value associated with the binder VHH D7 Tyr100A→Ala (VHH, PDB 2xa3 holds D7 with five framework changes) with the stated CDR3 mutation; Chothia numbering (100A is an insertion position)) VHH: AVQLVESGGGLAQAGGSLRLSCTVSGRTSSSHDMGWFRQAPGKEREFVAAISWSGGTTNYADSVKGRFAISKDNAKNAVSLQMNSLKPEDTAVYYCAAKWRPLRASDNPSNSDYNYWGQGTQVTVSS
5.37

Same read-out for VHH D7 Lys95→Ser (VHH, PDB 2xa3 holds D7 with five framework changes) with the stated CDR3 mutation; Chothia numbering) VHH: AVQLVESGGGLAQAGGSLRLSCTVSGRTSSSHDMGWFRQAPGKEREFVAAISWSGGTTNYADSVKGRFAISKDNAKNAVSLQMNSLKPEDTAVYYCAASWRPLRYSDNPSNSDYNYWGQGTQVTVSS ?
4.11

Same read-out for VHH D7 double mutant Asn101→Tyr/Tyr102→Asp (VHH, PDB 2xa3 holds D7 with five framework changes) with the stated CDR3 mutations; Chothia numbering; also called double mutant Asn^101Tyr^102) VHH: AVQLVESGGGLAQAGGSLRLSCTVSGRTSSSHDMGWFRQAPGKEREFVAAISWSGGTTNYADSVKGRFAISKDNAKNAVSLQMNSLKPEDTAVYYCAAKWRPLRYSDNPSNSDYYDWGQGTQVTVSS ?
5.27

Same read-out for VHH D7 Asn100D→Ala (VHH, PDB 2xa3 holds D7 with five framework changes) with the stated CDR3 mutation; Chothia numbering (100D is an insertion position)) VHH: AVQLVESGGGLAQAGGSLRLSCTVSGRTSSSHDMGWFRQAPGKEREFVAAISWSGGTTNYADSVKGRFAISKDNAKNAVSLQMNSLKPEDTAVYYCAAKWRPLRYSDAPSNSDYNYWGQGTQVTVSS ?
5.40

Same read-out for VHH D7 Trp96→Ala (VHH, PDB 2xa3 holds D7 with five framework changes) with the stated CDR3 mutation; Chothia numbering) VHH: AVQLVESGGGLAQAGGSLRLSCTVSGRTSSSHDMGWFRQAPGKEREFVAAISWSGGTTNYADSVKGRFAISKDNAKNAVSLQMNSLKPEDTAVYYCAAKARPLRYSDNPSNSDYNYWGQGTQVTVSS ?
5.16

Same read-out for VHH D7 Asp100C→Ala (VHH, PDB 2xa3 holds D7 with five framework changes) with the stated CDR3 mutation; Chothia numbering (100C is an insertion position)) VHH: AVQLVESGGGLAQAGGSLRLSCTVSGRTSSSHDMGWFRQAPGKEREFVAAISWSGGTTNYADSVKGRFAISKDNAKNAVSLQMNSLKPEDTAVYYCAAKWRPLRYSANPSNSDYNYWGQGTQVTVSS ?
5.37

Same read-out for VHH D7 Leu99→Ala (VHH, PDB 2xa3 holds D7 with five framework changes) with the stated CDR3 mutation; Chothia numbering) VHH: AVQLVESGGGLAQAGGSLRLSCTVSGRTSSSHDMGWFRQAPGKEREFVAAISWSGGTTNYADSVKGRFAISKDNAKNAVSLQMNSLKPEDTAVYYCAAKWRPARYSDNPSNSDYNYWGQGTQVTVSS ?
4.15

Same read-out for llama heavy chain antibody fragment VHH D7, wild type (VHH, PDB 2xa3 holds D7 with the framework changes Val5Gln, Ala11Val, Ala61Val, Ala68Asp and Ser79Tyr against wild type D7) VHH: AVQLVESGGGLAQAGGSLRLSCTVSGRTSSSHDMGWFRQAPGKEREFVAAISWSGGTTNYADSVKGRFAISKDNAKNAVSLQMNSLKPEDTAVYYCAAKWRPLRYSDNPSNSDYNYWGQGTQVTVSS ?
5.19
